- System: human peripheral blood mononuclear cells (PBMCs)
- Assay Text: Measurement of cell morphology: size (FSC-A) and granularity (SSC-A) by flow cytometry
- Type: cell-based
- Settings: 24 h incubation
Let's look at some compounds and their measured concentration from which changes in PBMCs granularity (SSC-A) occurred.

O=C(O)CNCP(=O)(O)O [Glyphosate, N-phosphonomethylglycine, reference compound] | ≥ 0.5 mM
O=P(O)(O)CO [Hydroxy-methylphosphonic acid, hydroxymethylphosphonic acid] | ≥ 5 mM
NCP(=O)(O)O | ≥ 5 mM
O=C(O)CN(CC(=O)O)CP(=O)(O)O | 10 mM

input: Answer with the recorded concentration from which changes in PBMCs granularity (SSC-A) occurred for the compound listed here: `O=P(O)(O)CNCP(=O)(O)O`
output: ≥ 7.5 mM

input: Answer with the recorded concentration from which changes in PBMCs granularity (SSC-A) occurred for the compound listed here: CN(CC(=O)O)CP(=O)(O)O [N-methylglyphosate]
output: ≥ 5 mM
